tested on: B. xylophilus; test: microbe, parasite or virus in culture; conditions: Bursaphelenchus xylophilus, 48 h, read-out: Corrected Mortality Rate ± SD (%) B. xylophilus
Kindly supply the reported mortality at 200 µg/mL values for the records listed here.
A number alone suffices; assume %.

GET /values?readout=mortality at 200 µg/mL&item= "O=C(NCCc1ncc(C(F)(F)F)cc1Cl)c1nc(-c2cccs2)no1" 6.9

GET /values?readout=mortality at 200 µg/mL&item= "O=C(NCc1ccc(F)cc1F)c1nc(-c2ccc(Br)nc2)no1" 30.7

GET /values?readout=mortality at 200 µg/mL&item= O=C(NCCc1ncc(C(F)(F)F)cc1Cl)c1ccccc1C(F)(F)F [Fluopyram, fluopyram, reference compound] 100

GET /values?readout=mortality at 200 µg/mL&item= "O=C(NCCc1ccccn1)c1nc(-c2ccc(Cl)cc2)no1" 14.5

GET /values?readout=mortality at 200 µg/mL&item= c1ccc(-c2noc(-c3cccs3)n2)cc1 [Tioxazafen, tioxazafen, reference compound] 13.5

GET /values?readout=mortality at 200 µg/mL&item= "O=C(NCc1ccc(F)cc1F)c1nc(-c2ccccc2)no1" 26.1

GET /values?readout=mortality at 200 µg/mL&item= "Cc1ccc(-c2noc(C(=O)NCCc3ccccn3)n2)cc1" 8.1

GET /values?readout=mortality at 200 µg/mL&item= "O=C(NCCc1ncc(C(F)(F)F)cc1Cl)c1nc(-c2ccc(Cl)cc2)no1" 12.1

GET /values?readout=mortality at 200 µg/mL&item= "O=C(Nc1ccc(Cl)cc1Cl)c1nc(-c2ccccc2)no1" 25.3

GET /values?readout=mortality at 200 µg/mL&item= "Cc1ccc(-c2noc(C(=O)NCCc3ncc(C(F)(F)F)cc3Cl)n2)cc1" 11.6

GET /values?readout=mortality at 200 µg/mL&item= "O=C(Nc1ccc(Cl)cc1Cl)c1nc(-c2ncc(C(F)(F)F)cc2Cl)no1" 21.2

GET /values?readout=mortality at 200 µg/mL&item= "O=C(NCCc1ncc(C(F)(F)F)cc1Cl)c1nc(-c2ccc(Br)nc2)no1" 15.1

GET /values?readout=mortality at 200 µg/mL&item= "O=C(NCCc1ncc(C(F)(F)F)cc1Cl)c1nc(-c2ncc(C(F)(F)F)cc2Cl)no1" 17.1

GET /values?readout=mortality at 200 µg/mL&item= "O=C(NCCc1ccccn1)c1nc(-c2ccc(Br)nc2)no1" 14.1
